Readings of TGI for the listed compounds
# Test system: ACHN renal
# assay_details: NCI tumour cell line growth inhibition, 48 h

COc1cc(/C=C/C(=O)N2CCN(C(=O)c3cc(OC)c(OC)c(OC)c3)CC2)ccc1OCCCOc1cc2c(cc1OC)C(=O)N1CCC[C@H]1C=N2    > 35.3 µM
FC(F)(Sc1ncc[nH]1)c1nc2ccccc2o1    > 100 µM
NC12CCC(CC1=O)C2 (configuration not stated)    > 100 µM

Input: Requested read-out: TGI. Entry: COc1cc(C2C(Cl)C(=O)N2NC(=O)c2ccc(N)cc2)cc(Br)c1O (configuration not stated)
Output: 45.1 µM

Input: Requested read-out: TGI. Entry: OCCN1CCN2C=C(C3CCCC4N(CCO)CCN34)CCC21 (configuration not stated)
Output: > 100 µM

Input: Requested read-out: TGI. Entry: `CCN(CC)Cc1c(/C=C\c2cc(OC)c(OC)c(OC)c2)ccc(OC)c1O`
Output: > 100 µM

Input: Requested read-out: TGI. Entry: COc1ccc(C2CC3(c4ccccc4)ON=C(c4ccccc4)N3c3ccccc3S2)cc1 (configuration not stated)
Output: > 100 µM
